measurement-name: Ki (µM)
Lab book: enter the figure in µM, no units written.

Request: Tell me reported Ki for CO[C@H](CO)C(=O)N[C@H](C(=O)N1[C@H](C(=O)NCCC2=CC[N+](=C(N)N)C2)C[C@@H]2C[C@H](O)[C@@H](O)C[C@@H]21)C(C)C [DYSINOSIN D] , tested with Coagulation factor VII (Homo sapiens, UniProt P08709).
Sequence (P08709 61-212 limits assumed): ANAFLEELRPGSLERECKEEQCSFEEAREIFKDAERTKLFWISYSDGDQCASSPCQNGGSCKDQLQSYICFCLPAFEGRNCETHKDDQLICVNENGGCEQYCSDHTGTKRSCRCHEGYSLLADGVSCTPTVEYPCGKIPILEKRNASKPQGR
Sequence (P08709 213-466 limits assumed): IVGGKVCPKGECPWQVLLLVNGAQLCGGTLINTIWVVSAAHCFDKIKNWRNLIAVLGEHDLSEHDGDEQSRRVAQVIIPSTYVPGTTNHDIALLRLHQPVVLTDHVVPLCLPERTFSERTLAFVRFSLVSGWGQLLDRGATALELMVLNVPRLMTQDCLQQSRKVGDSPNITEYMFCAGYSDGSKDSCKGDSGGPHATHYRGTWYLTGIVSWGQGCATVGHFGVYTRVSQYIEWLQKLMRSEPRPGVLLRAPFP
Response: 1.32
